target-or-test-system: human GSK-3β (Homo sapiens)
test-name: In vitro GSK-3β inhibition: phosphorylation of primed substrate
Assay type: biochemical
pIC50: −log10 of the molar value.
In this section we review reported pIC50 values for a set of molecules.
property-name: pIC50

{"molecule": "O=C1NC(=O)C(c2cn(C3CCN(Cc4ccccn4)CC3)c3ccccc23)=C1c1coc2ccccc12", "numeric-readout": 6.96}
{"molecule": "NCC(=O)N1CCC(n2cc(C3=C(c4coc5ccccc45)C(=O)NC3=O)c3ccccc32)CC1", "numeric-readout": 7.26}
{"molecule": "Cc1nonc1C(=O)N1CCC(n2cc(C3=C(c4coc5ccccc45)C(=O)NC3=O)c3ccccc32)CC1", "numeric-readout": 7.60}
{"molecule": "O=C1NC(=O)C(c2cn(C3CCN(C(=O)N4CCOCC4)CC3)c3ccccc23)=C1c1coc2ccccc12", "numeric-readout": 8.00}
{"molecule": "COc1cccc2c(C3=C(c4cn(C5CCNCC5)c5ccc(F)cc45)C(=O)NC3=O)coc12", "numeric-readout": 7.55}
{"molecule": "O=C1NC(=O)C(c2cn(C3CCN(C(=O)c4ccccn4)CC3)c3ccccc23)=C1c1coc2ccccc12", "numeric-readout": 8.22}
{"molecule": "COc1ccc2c(C3=C(c4cn(C5CCNCC5)c5ccccc45)C(=O)NC3=O)coc2c1", "numeric-readout": 6.20}

* * *

target-or-test-system: human GSK-3β (Homo sapiens, UniProt P49841)
Sequence (P49841 whole entry): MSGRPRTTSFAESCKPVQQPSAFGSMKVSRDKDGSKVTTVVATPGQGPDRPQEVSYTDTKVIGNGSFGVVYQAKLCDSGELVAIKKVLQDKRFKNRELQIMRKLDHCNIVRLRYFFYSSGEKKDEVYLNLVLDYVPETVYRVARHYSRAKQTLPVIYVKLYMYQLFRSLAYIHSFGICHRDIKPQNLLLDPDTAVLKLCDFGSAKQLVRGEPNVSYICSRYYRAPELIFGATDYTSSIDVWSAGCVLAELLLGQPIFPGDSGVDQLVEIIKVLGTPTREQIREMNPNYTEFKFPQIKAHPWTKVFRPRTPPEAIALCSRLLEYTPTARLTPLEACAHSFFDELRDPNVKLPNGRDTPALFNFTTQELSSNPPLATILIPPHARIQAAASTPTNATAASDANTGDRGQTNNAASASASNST
test-name: In vitro GSK-3β inhibition: phosphorylation of primed substrate
Format: biochemical
pIC50: −log10 of the molar value.

{"compound": "O=C1NC(=O)C(c2cn(C3CCN(C(=O)c4cccnc4)CC3)c3ccccc23)=C1c1coc2ccccc12 [Compound 3m]", "pIC50": 8.10}
{"compound": "O=C1NC(=O)C(c2cn(C3CCNCC3)c3ccccc23)=C1c1coc2ccccc12 [Compound 3a]", "pIC50": 7.17}
{"compound": "COc1cccc2c(C3=C(c4cn(C5CCNCC5)c5ccccc45)C(=O)NC3=O)coc12 [Compound 3c]", "pIC50": 6.87}
{"compound": "CN1CCC(n2cc(C3=C(c4coc5ccccc45)C(=O)NC3=O)c3ccccc32)CC1 [Compound 3h]", "pIC50": 6.81}

Values from paper PMC3428230
